The following compounds are shown together with reported melting point values.

Illustrative cases are given below, each with its answer.
>  <cpd.smiles>
COC(=O)N(O)Cc1c(C)n(C(=O)c2ccc(Cl)cc2)c2ccc(OC)cc12

>  <melting point>
113 to 114 °C

$$$$
>  <cpd.smiles>
COCCNC(=O)c1ccc(-c2ccc3nnn(Cc4ccc5ncccc5c4)c3n2)cc1F

>  <melting point>
162 to 164 °C

$$$$

[in] Which melting point is listed for O=C(CBr)CN1C(=O)c2ccccc2C1=O ?
[out] 139 to 141 °C

[in] Fill in the blank: the reported melting point of CCC(CC)C(=O)Nc1cc(-c2ccccc2)nc(-c2ccccc2)n1 is ____.
[out] 102 °C

[in] Given the entry N#CC(C#N)=C1N(CCCCN2CCCCC2)CCN1CCCCN1CCCCC1 , report its measured melting point.
[out] 96 to 98 °C

src = a melting point compilation (Tetko et al.; mined from patent text by program, amines drawn as free bases though some values may be those of a salt)
